Target: LHRH (Rattus norvegicus)
Construct: endogenous in cells; host or cells: rat pituitary cells (own knowledge of the cited Haviv 1989 method)
Sequence (P30969 1-327): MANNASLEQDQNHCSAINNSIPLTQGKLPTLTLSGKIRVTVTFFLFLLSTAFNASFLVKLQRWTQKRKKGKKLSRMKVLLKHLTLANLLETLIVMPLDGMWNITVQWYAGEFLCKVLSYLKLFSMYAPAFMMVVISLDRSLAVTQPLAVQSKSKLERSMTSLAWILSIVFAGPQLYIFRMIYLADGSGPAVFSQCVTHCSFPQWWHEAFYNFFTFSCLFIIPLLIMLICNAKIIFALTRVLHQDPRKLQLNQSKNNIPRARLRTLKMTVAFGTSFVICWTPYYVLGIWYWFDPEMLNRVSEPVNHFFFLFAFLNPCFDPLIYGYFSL
Assay: in vitro test for LHRH antagonist potency (pA2)
Assay type: cell-based
Conditions: negative logarithm of the antagonist concentration required to shift the response curve produced by the agonist leuprolide to two-fold higher concentration
Starred links: 1 amine or outer side, 2 acyl side, 3 side chain; linkers in the order of their positions; H or OH if unused. Non-standard residues stand in square brackets, D forms with d. Residues, ends and D or L forms follow the SMILES beside them. Groups on a side chain read outwards from the residue. *: point of attachment. Shikimoyl = O=C(C1=C[C@@H](O)[C@@H](O)[C@H](O)C1)*; X4 = O=C([C@@H](O)[C@@H](O)[C@H](O)[C@@H](O)CO)*; dPhe(4-Cl) = N[C@H](Cc1ccc(Cl)cc1)C(=O)O; d2Nal = N[C@H](Cc1ccc2ccccc2c1)C(=O)O; Lys(iPr) = CC(C)NCCCC[C@H](N)C(=O)O; NMeY = CN[C@@H](Cc1ccc(O)cc1)C(=O)O; dCit = NC(=O)NCCC[C@@H](N)C(=O)O; d3Pal = N[C@H](Cc1cccnc1)C(=O)O; Salicyloyl = O=C(c1ccccc1O)*; Suc = O=C(CCC(=O)[*:2])[*:1]; Nicotinoyl = O=C(c1cccnc1)*; GABA = NCCCC(=O)O; azaGly = NNC(=O)O
metric.name: Kb (nM)

* CC(C)C[C@H](NC(=O)[C@@H](CCCCNC(=O)c1cccnc1)NC(=O)[C@H](Cc1ccc(O)cc1)N(C)C(=O)[C@H](CO)NC(=O)[C@@H](Cc1cccnc1)NC(=O)[C@@H](Cc1ccc(Cl)cc1)NC(=O)[C@@H](Cc1ccc2ccccc2c1)NC(=O)CNC(=O)c1ccccc1O)C(=O)N[C@@H](CCCCNC(C)C)C(=O)N1CCC[C@H]1C(=O)N[C@H](C)C(N)=O [Example 2h] (Salicyloyl-G[d2Nal][dPhe(4-Cl)][d3Pal]S[NMeY][dK](Nicotinoyl)L[Lys(iPr)]P[dA]-NH2) | 0.01
* CC(C)C[C@H](NC(=O)[C@@H](CCCCNC(=O)CNC(=O)[C@@H](O)[C@@H](O)[C@H](O)[C@@H](O)CO)NC(=O)[C@H](Cc1ccc(O)cc1)N(C)C(=O)[C@H](CO)NC(=O)[C@@H](Cc1cccnc1)NC(=O)[C@@H](Cc1ccc(Cl)cc1)NC(=O)[C@@H](Cc1ccc2ccccc2c1)NC(=O)CNC(=O)[C@@H](O)[C@@H](O)[C@H](O)[C@@H](O)CO)C(=O)N[C@@H](CCCNC(=N)N)C(=O)N1CCC[C@H]1C(=O)N[C@H](C)C(N)=O [Example 21] (X4-G[d2Nal][dPhe(4-Cl)][d3Pal]S[NMeY][dK]([Gly-X4])LRP[dA]-NH2) | 0.0316
* CC(C)C[C@H](NC(=O)[C@@H](CCCCNC(=O)c1cccnc1)NC(=O)[C@H](Cc1ccc(O)cc1)N(C)C(=O)[C@H](CO)NC(=O)[C@@H](Cc1cccnc1)NC(=O)[C@@H](Cc1ccc(Cl)cc1)NC(=O)[C@@H](Cc1ccc2ccccc2c1)NC(=O)NNC(=O)c1cccnc1)C(=O)N[C@@H](CCCCNC(C)C)C(=O)N1CCC[C@H]1C(=O)N[C@H](C)C(N)=O [Example 37b] (Nicotinoyl-[azaGly][d2Nal][dPhe(4-Cl)][d3Pal]S[NMeY][dK](Nicotinoyl)L[Lys(iPr)]P[dA]-NH2) | 0.0158
* CC(C)C[C@H](NC(=O)[C@@H](CCCNC(N)=O)NC(=O)[C@H](Cc1ccc(O)cc1)N(C)C(=O)[C@H](CO)NC(=O)[C@@H](Cc1cccnc1)NC(=O)[C@@H](Cc1ccc(Cl)cc1)NC(=O)[C@@H](Cc1ccc2ccccc2c1)NC(=O)CNC(=O)CCC(=O)O)C(=O)N[C@@H](CCCNC(=N)N)C(=O)N1CCC[C@H]1C(=O)N[C@H](C)C(N)=O [Example 13d] (Suc-G[d2Nal][dPhe(4-Cl)][d3Pal]S[NMeY][dCit]LRP[dA]-NH2) | 0.0407
* CC(C)C[C@H](NC(=O)[C@@H](CCCCNC(=O)c1cccnc1)NC(=O)[C@H](Cc1ccc(O)cc1)N(C)C(=O)[C@H](CO)NC(=O)[C@@H](Cc1cccnc1)NC(=O)[C@@H](Cc1ccc(Cl)cc1)NC(=O)[C@@H](Cc1ccc2ccccc2c1)NC(=O)CNC(=O)c1cccnc1)C(=O)N[C@@H](CCCNC(=N)N)C(=O)N1CCC[C@H]1C(=O)N[C@H](C)C(N)=O [Example 27a] (Nicotinoyl-G[d2Nal][dPhe(4-Cl)][d3Pal]S[NMeY][dK](Nicotinoyl)LRP[dA]-NH2) | 0.00776
* CC(C)C[C@H](NC(=O)[C@@H](CCCCNC(=O)c1cccnc1)NC(=O)[C@H](Cc1ccc(O)cc1)N(C)C(=O)[C@H](CO)NC(=O)[C@@H](Cc1cccnc1)NC(=O)[C@@H](Cc1ccc(Cl)cc1)NC(=O)[C@@H](Cc1ccc2ccccc2c1)NC(=O)CCCNC(=O)c1cccnc1)C(=O)N[C@@H](CCCCNC(C)C)C(=O)N1CCC[C@H]1C(=O)N[C@H](C)C(N)=O [Example 6c] ({Nicotinoyl-GABA}-[d2Nal][dPhe(4-Cl)][d3Pal]S[NMeY][dK](Nicotinoyl)L[Lys(iPr)]P[dA]-NH2) | 0.0224
* CC(C)C[C@H](NC(=O)[C@@H](CCCCNC(=O)[C@@H](CO)NC(=O)c1cccnc1)NC(=O)[C@H](Cc1ccc(O)cc1)N(C)C(=O)[C@H](CO)NC(=O)[C@@H](Cc1cccnc1)NC(=O)[C@@H](Cc1ccc(Cl)cc1)NC(=O)[C@@H](Cc1ccc2ccccc2c1)NC(=O)CNC(=O)C1=C[C@@H](O)[C@@H](O)[C@H](O)C1)C(=O)N[C@@H](CCCNC(=N)N)C(=O)N1CCC[C@H]1C(=O)N[C@H](C)C(N)=O [Example 15c] (Shikimoyl-G[d2Nal][dPhe(4-Cl)][d3Pal]S[NMeY][dK]([dS-Nicotinoyl])LRP[dA]-NH2) | 0.01
* CC(C)C[C@H](NC(=O)[C@@H](CCCCNC(=O)C1=C[C@@H](O)[C@@H](O)[C@H](O)C1)NC(=O)[C@H](Cc1ccc(O)cc1)N(C)C(=O)[C@H](CO)NC(=O)[C@@H](Cc1cccnc1)NC(=O)[C@@H](Cc1ccc(Cl)cc1)NC(=O)[C@@H](Cc1ccc2ccccc2c1)NC(=O)[C@@H](CO)NC(=O)c1cccnc1)C(=O)N[C@@H](CCCNC(=N)N)C(=O)N1CCC[C@H]1C(=O)N[C@H](C)C(N)=O [Example 14e] (Nicotinoyl-[dS][d2Nal][dPhe(4-Cl)][d3Pal]S[NMeY][dK](Shikimoyl)LRP[dA]-NH2) | 0.0195
